Catalogue of glycan array binding signal (z-score) readings, one per entry.
Target: Neu5Ac(a2-3)Gal(b1-4)GlcNAc(b1-2)[Neu5Ac(a2-3)Gal(b1-4)GlcNAc(b1-4)]Man(a1-3)[GlcNAc(b1-4)][Neu5Ac(a2-3)Gal(b1-4)GlcNAc(b1-4)Man(a1-6)]Man(b1-4)GlcNAc(b1-4)GlcNAc
Experiment: glycan array binding signal (z-score within array); higher = stronger binding
Settings: glycan notation: IUPAC condensed, linker removed
The sample as a whole holds a higher share of the strongest signals than the screen did.
// return just the number, without any unit appended

Examples with their reported glycan array binding signal (z-score) follow.
Binder	glycan array binding signal (z-score)
Clec18A (Homo sapiens) (protein) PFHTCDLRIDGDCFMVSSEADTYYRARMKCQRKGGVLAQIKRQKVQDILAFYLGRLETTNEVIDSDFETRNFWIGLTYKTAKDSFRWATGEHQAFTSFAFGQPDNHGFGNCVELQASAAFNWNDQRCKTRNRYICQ	-0.566
B936 (Bifidobacterium sp) (protein) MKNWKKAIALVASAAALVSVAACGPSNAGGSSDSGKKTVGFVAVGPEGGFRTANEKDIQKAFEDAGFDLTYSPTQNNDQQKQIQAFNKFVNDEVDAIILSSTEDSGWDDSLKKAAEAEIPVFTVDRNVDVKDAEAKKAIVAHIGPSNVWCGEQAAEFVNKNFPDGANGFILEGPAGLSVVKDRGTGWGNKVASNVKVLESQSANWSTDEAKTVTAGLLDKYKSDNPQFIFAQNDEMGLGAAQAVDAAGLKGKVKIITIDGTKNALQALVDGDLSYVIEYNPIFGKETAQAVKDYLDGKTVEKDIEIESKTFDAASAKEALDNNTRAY	0.275

// query What glycan array binding signal (z-score) value was documented for this binder, PpFlo2 (Pichia pastoris) (protein) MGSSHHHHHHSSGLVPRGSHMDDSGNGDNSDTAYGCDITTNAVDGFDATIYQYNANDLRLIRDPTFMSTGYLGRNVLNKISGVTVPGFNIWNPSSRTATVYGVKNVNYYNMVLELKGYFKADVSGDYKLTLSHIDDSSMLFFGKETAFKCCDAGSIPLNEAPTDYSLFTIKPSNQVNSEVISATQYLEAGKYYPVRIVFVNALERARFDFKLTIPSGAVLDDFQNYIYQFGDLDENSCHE ?
// result -0.271
